Source listed as patent US10081635B2.

# TARGET OR SYSTEM: Human TYK2 (Homo sapiens (Human), UniProt P29597)
# Sequence (P29597 whole entry): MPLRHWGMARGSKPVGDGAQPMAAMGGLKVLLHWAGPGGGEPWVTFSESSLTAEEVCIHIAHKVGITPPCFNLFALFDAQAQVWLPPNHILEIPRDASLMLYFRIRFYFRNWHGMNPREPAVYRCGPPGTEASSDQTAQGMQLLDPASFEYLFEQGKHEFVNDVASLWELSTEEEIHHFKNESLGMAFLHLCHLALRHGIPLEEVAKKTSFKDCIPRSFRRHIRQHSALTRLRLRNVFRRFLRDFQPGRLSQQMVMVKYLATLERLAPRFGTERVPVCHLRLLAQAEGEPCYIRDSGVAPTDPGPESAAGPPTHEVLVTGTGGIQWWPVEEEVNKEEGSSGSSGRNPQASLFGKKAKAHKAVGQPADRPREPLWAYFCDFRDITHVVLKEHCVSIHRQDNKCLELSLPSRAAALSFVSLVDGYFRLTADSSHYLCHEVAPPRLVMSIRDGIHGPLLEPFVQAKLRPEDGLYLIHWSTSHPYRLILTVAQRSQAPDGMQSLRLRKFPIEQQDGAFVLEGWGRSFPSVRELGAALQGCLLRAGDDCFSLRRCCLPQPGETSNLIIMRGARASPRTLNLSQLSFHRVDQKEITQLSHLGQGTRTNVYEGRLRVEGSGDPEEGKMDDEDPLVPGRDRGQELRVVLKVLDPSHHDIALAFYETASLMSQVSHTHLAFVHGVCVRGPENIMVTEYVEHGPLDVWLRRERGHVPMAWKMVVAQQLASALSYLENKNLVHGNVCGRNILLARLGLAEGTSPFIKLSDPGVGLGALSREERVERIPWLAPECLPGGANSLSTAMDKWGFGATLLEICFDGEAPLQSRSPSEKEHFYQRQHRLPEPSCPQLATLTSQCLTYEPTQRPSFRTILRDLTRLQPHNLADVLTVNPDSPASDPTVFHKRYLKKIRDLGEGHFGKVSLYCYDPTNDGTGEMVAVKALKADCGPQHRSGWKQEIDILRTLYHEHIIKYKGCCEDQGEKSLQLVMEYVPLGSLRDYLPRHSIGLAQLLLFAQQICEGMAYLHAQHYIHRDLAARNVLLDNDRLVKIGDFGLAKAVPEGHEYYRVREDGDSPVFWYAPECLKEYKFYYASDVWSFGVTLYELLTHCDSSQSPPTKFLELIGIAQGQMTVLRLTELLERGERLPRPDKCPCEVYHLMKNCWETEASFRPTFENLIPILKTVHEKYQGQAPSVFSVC
# EXPERIMENT SUMMARY: In vitro kinase inhibition test, TYK2 (33P-ATP filter scintillation)
# Type: biochemical
# CONDITION DESCRIPTION: compound at 1 uM; read-out: TYK2 kinase-phosphorylation inhibitory level (% inhibition)
# inhibition at 1 µM binned as label 0 (below 7%), label 1 (7% to below 70%), label 2 (70% or more)

Reference set, count: 6
MOLECULE	TARGET OR SYSTEM	ASSIGNED CATEGORY
CN(c1ncnc2[nH]ccc12)[C@@H]1CN(C(=S)CC#N)CC12CC2	Human TYK2 (Homo sapiens (Human), UniProt P29597)	label 1
CCCCNC(=O)N1C[C@H](N(C)c2ncnc3[nH]ccc23)C2(CC2)C1	Human TYK2 (Homo sapiens (Human), UniProt P29597)	label 1
CC(C)COC(=O)N1C[C@@H](N(C)c2ncnc3[nH]ccc23)C2(CC2)C1	Human TYK2 (Homo sapiens (Human), UniProt P29597)	label 0
Cc1cccc(S(=O)(=O)N2C[C@H](N(C)c3ncnc4[nH]ccc34)C3(CC3)C2)c1	Human TYK2 (Homo sapiens (Human), UniProt P29597)	label 2
CN(c1ncnc2[nH]ccc12)C1CN(C(=S)CC#N)CC12CC2 (stereo not drawn)	Human TYK2 (Homo sapiens (Human), UniProt P29597)	label 0
CN(c1ncnc2[nH]ccc12)[C@H]1CN(C(=O)c2cccc(C#N)c2)CC12CC2	Human TYK2 (Homo sapiens (Human), UniProt P29597)	label 1

From here, focus on the item given below.
Enquiry: Could you tell me which band CN(c1ncnc2[nH]ccc12)[C@H]1CN(C(=S)CC#N)CC12CC2 belongs to?
Return: label 2
